test system: KM12 colon; assay: NCI-60 one-dose screen, 48 h (100 = growth as untreated, 0 = no growth, -100 = all killed); settings: 10 µM
Compounds without any hit were thinned out: in the full panel of roughly 83,000, 20% have a hit.
PROPERTY MEASURED: growth (%)
Answers are plain numbers, in %.

Check out these entries, answers already filled in.
{"columns": ["COMPOUND", "SCALE UNIT", "NUMBER"],
 "data": [
  ["COc1ccc2nc(Nc3cccc(NC(=O)c4ccc(CN5CCN(C)CC5)c(C(F)(F)F)c4)c3)ccc2c1", "%", -68.1],
  ["NS(=O)(=O)c1ccc(NC(=O)CSc2ccc(-c3ccc(Cl)cc3)nn2)c(Br)c1", "%", 64.6],
  ["O=C(Nc1nc2ccc([N+](=O)[O-])cc2s1)Nc1ccccc1I", "%", 2.86]
]}

// batch mode: one growth value per listed entry
1. CN1CCc2c(sc3ncnc(N/N=C/c4cn(-c5ccccc5)nc4-c4ccc(Br)cc4)c23)C1
2. Cn1c(O)c(N=Nc2nc(-c3cc4ccccc4oc3=O)cs2)c2cc(Br)ccc21
3. CONC[C@]1(C)C=C2C(=O)[C@](C)(O)C3(CC3)C(C)=C2[C@H]1O
4. COc1ccc(C(=O)Nc2ccc(-c3ccc4c(c3)NC(=O)/C4=C\c3ccc[nH]3)cc2)cc1
5. CC(=O)Nc1ccc(-n2cnc3cc(-c4ccc(O)cc4)ccc32)cc1F
6. CCOC(=O)C1=C(N)N(c2ccccc2)C2=C(C(=O)CC(C)(C)C2)C1c1ccc(Cl)cc1 (centres undefined)

[44.9, 95.5, 7.08, 1.95, 4.96, 17.9]
